Would you kindly list EC50 for each of these compounds?
subject-of-test: Neuronal acetylcholine receptor subunit alpha-7 (Homo sapiens)
Sequence (P36544 whole entry): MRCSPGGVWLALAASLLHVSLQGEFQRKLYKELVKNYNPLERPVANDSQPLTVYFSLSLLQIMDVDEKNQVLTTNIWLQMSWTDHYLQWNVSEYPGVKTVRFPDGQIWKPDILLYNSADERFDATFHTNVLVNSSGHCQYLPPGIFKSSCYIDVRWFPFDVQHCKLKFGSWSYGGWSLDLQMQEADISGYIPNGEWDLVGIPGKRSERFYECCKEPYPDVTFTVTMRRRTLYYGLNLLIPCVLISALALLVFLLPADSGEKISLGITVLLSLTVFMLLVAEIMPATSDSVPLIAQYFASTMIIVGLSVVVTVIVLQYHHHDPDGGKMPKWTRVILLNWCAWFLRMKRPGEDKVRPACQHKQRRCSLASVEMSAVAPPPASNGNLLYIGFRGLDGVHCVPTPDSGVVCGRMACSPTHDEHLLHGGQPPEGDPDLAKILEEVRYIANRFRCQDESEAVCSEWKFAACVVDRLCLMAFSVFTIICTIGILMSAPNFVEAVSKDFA
assay-overview: Agonist activity at human alpha7 nAChR expressed in HEK293 cells co-expressing Ric-3/NACHO assessed as induction of calcium mobilization measured up to 90 secs in presence of PNU-120596 by FLIPR assay

>>> result("COc1cc2c(cc1OC)[C@@H]1CCCN1CC2")
"> 100 µM"
>>> result("COc1ccc2c(c1)C1CCC[N+]1(C)CC2 (stereo not drawn)")
"1.2 µM"

Now consider the entry below.
Qu. // query EC50 value for entry COc1ccc2c(c1)CCN1CCCC21 (stereo not drawn)
Ans. > 100 µM

* * *

subject-of-test: Neuronal acetylcholine receptor; alpha3/beta4 (Rattus norvegicus, UniProt P04757+P12392)
Sequence (P04757 whole entry): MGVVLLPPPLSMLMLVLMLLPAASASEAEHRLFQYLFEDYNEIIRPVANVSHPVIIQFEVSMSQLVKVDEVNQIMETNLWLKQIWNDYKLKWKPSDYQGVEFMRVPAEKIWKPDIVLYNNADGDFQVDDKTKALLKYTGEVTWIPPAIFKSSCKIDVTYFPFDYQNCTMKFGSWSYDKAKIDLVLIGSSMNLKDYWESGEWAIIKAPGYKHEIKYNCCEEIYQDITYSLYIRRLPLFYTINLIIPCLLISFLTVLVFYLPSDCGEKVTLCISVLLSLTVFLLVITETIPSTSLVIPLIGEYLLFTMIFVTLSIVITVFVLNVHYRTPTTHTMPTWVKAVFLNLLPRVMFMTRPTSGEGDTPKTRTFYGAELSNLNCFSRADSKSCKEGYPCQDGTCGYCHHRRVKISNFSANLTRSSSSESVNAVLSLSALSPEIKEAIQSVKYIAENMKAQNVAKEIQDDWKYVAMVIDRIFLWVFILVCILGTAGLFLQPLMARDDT
Sequence (P12392 whole entry): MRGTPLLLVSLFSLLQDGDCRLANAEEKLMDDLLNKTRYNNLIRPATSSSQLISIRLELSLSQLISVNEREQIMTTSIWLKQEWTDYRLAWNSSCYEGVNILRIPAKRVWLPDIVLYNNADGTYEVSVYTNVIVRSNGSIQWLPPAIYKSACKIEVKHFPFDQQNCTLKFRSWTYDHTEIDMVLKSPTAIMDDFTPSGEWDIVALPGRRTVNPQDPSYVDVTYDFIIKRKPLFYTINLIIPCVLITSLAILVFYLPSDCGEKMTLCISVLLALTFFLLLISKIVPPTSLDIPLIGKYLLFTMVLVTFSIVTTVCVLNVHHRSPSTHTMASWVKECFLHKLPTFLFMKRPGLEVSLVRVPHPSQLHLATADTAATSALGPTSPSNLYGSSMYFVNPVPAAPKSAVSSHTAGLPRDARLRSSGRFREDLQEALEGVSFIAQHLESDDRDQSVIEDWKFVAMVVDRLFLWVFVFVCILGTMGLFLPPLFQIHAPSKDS
assay-overview: Displacement of [3H]epibatidine from rat alpha3beta4 nAChR expressed in HEK293 cell membranes after 4 hrs by scintillation counting method
What Ki was measured for each of the following?
Answers are plain numbers, in µM.

>>> number("COC1CC=C2CCN3CCC4=C(CC(=O)OC4)[C@]23C1 (some centres not stated)")
100
>>> number("COc1cc2c(cc1OCc1ccccc1)C1CCCN1CC2 (configuration not stated)")
300
>>> number("C[N+]12CCCC1c1cc3c(cc1CC2)OCO3 (configuration not stated)")
30
>>> number("COc1cc2c(cc1OC)[C@@H]1CCC[N+]1(C)CC2 (some centres not stated)")
25
>>> number("COc1cc2c(cc1O)C[N+](C)(C)CC2")
25

Items follow; give Ki for each.
1. COc1cc2c(cc1OC)[C@H]1CCCN1CC2
2. COc1cc2c(cc1OCc1ccccc1)CC[N+]1(C)CCCC21 (configuration not stated)
3. COc1ccc2c(c1)CC[N+]1(C)CCCC21 (configuration not stated)
4. COc1cc2c(cc1OC)C[N+](C)(C)CC2

Ans.
[100, 300, 25, 100]

Your task in this section: give Ki for each listed record.
1. COc1cc2c(cc1OCc1ccccc1)CCN(C)C2
2. c1ccc2c(c1)CCN1CCCC21 (configuration not stated)

Ans.
1. 300
2. 100

* * *

subject-of-test: Neuronal acetylcholine receptor; alpha3/beta4 (Rattus norvegicus, UniProt P04757+P12392)
assay-overview: Antagonist activity at rat alpha3beta4 nAChR expressed in HEK293 cells assessed as inhibition of (S)-nicotine-induced […] response measured up to 90 secs by FMP assay
pIC50: −log10 of the molar value.
outcome-measure: pIC50

Please go through the list and note pIC50 for each compound.
1. COc1cc2c(cc1OC)[C@@H]1CCC[N+]1(C)CC2 (stereo partly specified)
2. COc1cc2c(cc1OCc1ccccc1)CCN1CCCC21 (stereo unspecified)

Ans.
< 4.00
4.00

Batch lookup, pIC50 per entry.
1. COc1ccc(CC2c3cc(OC)c(OC)cc3CCN2C)cc1OC (stereo unspecified) [LAUDANOSINE]
2. COc1cc2c(cc1OCc1ccccc1)C1CCCN1CC2 (stereo unspecified)
3. C[N+]12CCC[C@H]1c1cc3c(cc1CC2)OCO3 (stereo partly specified)

Ans.
< 4.00
< 4.00
< 4.00

* * *

I'd be grateful if you could share measured Ki for these entries.
subject-of-test: Neuronal acetylcholine receptor; alpha4/beta2 (Rattus norvegicus, UniProt P09483+P12390)
Sequence (P09483 whole entry): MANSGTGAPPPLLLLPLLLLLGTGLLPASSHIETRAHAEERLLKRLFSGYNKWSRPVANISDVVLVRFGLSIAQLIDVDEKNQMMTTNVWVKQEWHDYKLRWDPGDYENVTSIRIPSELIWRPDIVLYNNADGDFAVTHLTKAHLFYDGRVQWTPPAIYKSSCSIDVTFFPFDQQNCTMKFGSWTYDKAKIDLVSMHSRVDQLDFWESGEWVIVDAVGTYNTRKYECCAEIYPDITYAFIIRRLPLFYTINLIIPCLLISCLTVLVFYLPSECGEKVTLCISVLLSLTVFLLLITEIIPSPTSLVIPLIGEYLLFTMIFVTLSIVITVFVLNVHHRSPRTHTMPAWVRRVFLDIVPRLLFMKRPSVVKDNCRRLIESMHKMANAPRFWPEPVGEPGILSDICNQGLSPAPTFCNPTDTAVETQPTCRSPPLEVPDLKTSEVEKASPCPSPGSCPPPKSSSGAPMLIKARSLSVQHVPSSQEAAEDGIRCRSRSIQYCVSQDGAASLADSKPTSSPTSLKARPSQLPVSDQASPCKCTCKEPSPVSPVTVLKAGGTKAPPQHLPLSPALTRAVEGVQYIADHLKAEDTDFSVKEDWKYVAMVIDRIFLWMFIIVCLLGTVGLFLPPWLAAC
Sequence (P12390 whole entry): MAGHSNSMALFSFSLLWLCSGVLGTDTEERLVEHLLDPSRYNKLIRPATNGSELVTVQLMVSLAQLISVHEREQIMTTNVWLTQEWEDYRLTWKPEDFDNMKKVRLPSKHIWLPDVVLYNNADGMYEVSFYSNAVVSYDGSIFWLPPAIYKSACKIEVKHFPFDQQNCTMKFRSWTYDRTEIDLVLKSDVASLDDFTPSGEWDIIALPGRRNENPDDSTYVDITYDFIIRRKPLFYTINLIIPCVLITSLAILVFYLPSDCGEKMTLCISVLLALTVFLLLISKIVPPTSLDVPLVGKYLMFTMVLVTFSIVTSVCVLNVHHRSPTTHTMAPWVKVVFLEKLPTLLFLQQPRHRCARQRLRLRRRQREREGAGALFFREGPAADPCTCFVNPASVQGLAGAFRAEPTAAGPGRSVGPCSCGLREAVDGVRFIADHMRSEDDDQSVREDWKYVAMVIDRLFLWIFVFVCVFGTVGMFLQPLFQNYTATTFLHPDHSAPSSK
assay-overview: Displacement of [3H]epibatidine from rat alpha4beta2 nAChR expressed in HEK293 cell membranes after 4 hrs by scintillation counting method
One number for each entry, in nM.

Count: 6. Required value per item: Ki.
1. COc1cc2c(cc1OC)[C@H]1CCCN1CC2
2. c1c2c(cc3c1OCO3)C1CCCN1CC2 (stereo unspecified)
3. C=CC[N+]1(C)CCc2cc(OC)c(OC)cc2C1 (stereo unspecified)
4. COc1cc2c(cc1OCc1ccccc1)C1CCCN1CC2 (stereo unspecified)
5. COc1cc2c(cc1OC)C1CCCN1CC2 (stereo unspecified)
6. COc1ccc2c(c1)CCN1CCCC21 (stereo unspecified)

Ans.
2500
500
30000
50000
4600
25000

Dear reader, for each entry below, please note its Ki.
1. COc1ccc2c(c1)CC[N+](C)(C)C2
2. COc1cc2c(cc1OC)[C@@H]1CCC[N+]1(C)CC2 (stereo partly specified)
3. COc1ccc2c(c1)CCN(C)C2
4. COc1cc2c(cc1OC)[C@H]1CCC[N+]1(C)CC2 (stereo partly specified)
5. C[N+]12CCCC1c1cc3c(cc1CC2)OCO3 (stereo unspecified)

Ans.
680
25000
2600
2400
140
